Reported SOY crop damage rating values are given for each entry in this list.
- System: soybean (Glycine max L., var. Pella 86, SOY)
- Protocol summary: Pre-emerge greenhouse test, crop damage rating
- Type: in vivo
- Design: key: 0 = no damage, 100 = complete death of all plants
- Settings: Rate 500 g al/ha, 14 days after application, rating scale 0-100

CC(=O)Nc1ccc(Oc2cc(-n3c(=O)n4n(c3=S)CCCC4)c(F)cc2Cl)c(C(F)(F)F)c1 10

In: Requested field: SOY crop damage rating. Item: Nn1c(C(F)(F)F)cc(=O)n(-c2cc(Oc3cccc(F)n3)c(Cl)cc2F)c1=O
Out: 95

In: Requested field: SOY crop damage rating. Item: O=c1n(-c2cc(Oc3nc(Cl)ccc3C(F)(F)F)c(Cl)cc2F)c(=S)n2n1CCCC2
Out: 0

In: Requested field: SOY crop damage rating. Item: Cc1nsc(Oc2cc(-n3c(=O)n4n(c3=S)CCCC4)c(F)cc2Cl)c1[N+](=O)[O-]
Out: 30

In: Requested field: SOY crop damage rating. Item: COc1cc(Oc2cc(-n3c(=O)n4n(c3=S)CCCC4)c(F)cc2Cl)nc(OC)n1
Out: 0

In: Requested field: SOY crop damage rating. Item: O=c1n(-c2cc(Oc3nccc(Cl)n3)c(Cl)cc2F)c(=S)n2n1CCCC2
Out: 0

In: Requested field: SOY crop damage rating. Item: CS(=O)(=O)c1cccnc1Oc1cc(-n2c(=O)n3n(c2=S)CCCC3)c(F)cc1Cl
Out: 80

In: Requested field: SOY crop damage rating. Item: Nc1ccc(Oc2cc(-n3c(=O)n4n(c3=S)CCCC4)c(F)cc2Cl)nc1
Out: 30

In: Requested field: SOY crop damage rating. Item: O=c1n(-c2cc(Oc3cccc(Cl)n3)c(Cl)cc2F)c(=S)n2n1CCCC2
Out: 0

----------
- Tested on: redroot pigweed (Amaranthus retroflexus, AMARE)
- Protocol summary: Pre-emerge greenhouse herbicide test, phytotoxicity rating
- Format: in vivo
- Settings: Rate 250 g al/ha, 14 days after application, rating scale 0-100
Reported AMARE phytotoxicity rating values are given for each entry in this list.
Number only, please.

Worked examples follow.
Compound	AMARE phytotoxicity rating
CCOC(=O)C(C)Oc1ccc(Oc2cc(-n3c(=O)n4n(c3=S)CCCC4)c(F)cc2Cl)c(N)c1 (stereo not shown) [Compound 8-40]	100
CCOC(=O)C(C)Oc1ccc(Oc2cc(-n3c(=O)n4n(c3=S)CCCC4)c(F)cc2Cl)c([N+](=O)[O-])c1 (stereo not shown) [Compound 8-39]	100
CCOC(=O)C(C)Oc1ccc(Oc2cc(-n3c(=O)n4n(c3=O)CCCC4)c(F)cc2Cl)c([N+](=O)[O-])c1 (stereo not shown) [Compound 8-41]	100
Nc1cccnc1Oc1cc(-n2c(=O)n3n(c2=S)CCCC3)c(F)cc1Cl [Compound 8-42]	100
CSc1cccnc1Oc1cc(-n2c(=O)n3n(c2=S)CCCC3)c(F)cc1Cl [Compound 8-43]	70

In: Requested field: AMARE phytotoxicity rating. Item: CCOC(=O)C(C)Oc1cc([N+](=O)[O-])c(Oc2cc(-n3c(=O)n4n(c3=S)CCCC4)c(F)cc2Cl)cc1Cl (stereo not shown) [Compound 8-38]
Out: 80

In: Requested field: AMARE phytotoxicity rating. Item: O=c1n(-c2cc(Oc3ncc([N+](=O)[O-])s3)c(Cl)cc2F)c(=S)n2n1CCCC2 [Compound 8-36]
Out: 100

----------
- Tested on: ivyleaf morningglory (Ipomoea hederacea, IPOHE)
- Protocol summary: Pre-emerge greenhouse herbicide test, phytotoxicity rating
- Type: in vivo
- Settings: Rate 500 g al/ha, 14 days after application, rating scale 0-100
Reported IPOHE phytotoxicity rating values are given for each entry in this list.
Number only, please.

COc1nc(OC)nc(Oc2cc(-n3c(=O)n4n(c3=S)CCCC4)c(F)cc2Cl)n1 80
O=c1n(-c2cc(Oc3nc(Cl)ccc3C(F)(F)F)c(Cl)cc2F)c(=S)n2n1CCCC2 30
COc1cc(Oc2cc(-n3c(=O)n4n(c3=S)CCCC4)c(F)cc2Cl)nc(OC)n1 90
O=c1n(-c2cc(Oc3nccc(C(F)(F)F)n3)c(Cl)cc2F)c(=S)n2n1CCCC2 90

Attention now shifts to the item below.
In: Requested field: IPOHE phytotoxicity rating. Item: N#Cc1ccc(Oc2cc(-n3c(=O)n4n(c3=S)CCCC4)c(F)cc2Cl)nc1
Out: 10

----------
- Test system: field corn (Zea mays L., var. Dekalb 535, CORN)
- Protocol summary: Post-emerge greenhouse test, crop damage rating
- Type: in vivo
- Settings: rate 500 g ai/ha, 14 days after application, scale 0-100
Measure name: crop damage rating CORN

Worked examples follow.
Compound	Result
O=c1n(-c2cc(Oc3nc(F)c(F)cc3F)c(Cl)cc2F)c(=S)n2n1CCCC2 [Compound 8-28]	20
O=c1n(-c2cc(Oc3cccc(Cl)n3)c(Cl)cc2F)c(=S)n2n1CCCC2 [Compound 8-26]	0
CC(=O)Nc1ccc(Oc2cc(-n3c(=O)n4n(c3=S)CCCC4)c(F)cc2Cl)c(C(F)(F)F)c1 [Compound 8-16]	5
O=c1n(-c2cc(Oc3cccc(F)n3)c(Cl)cc2F)c(=S)n2n1CCCC2 [Compound 8-25]	25
Nn1c(C(F)(F)F)cc(=O)n(-c2cc(Oc3cccc(C(F)(F)F)c3)c(Cl)cc2F)c1=O [Compound 9-25]	35

Attention now shifts to the item below.
In: What reported crop damage rating CORN corresponds to CC(C)S(=O)(=O)c1cccnc1Oc1cc(-n2c(=O)n3n(c2=S)CCCC3)c(F)cc1Cl [Compound 8-37] on field corn (Zea mays L., var. Dekalb 535, CORN)?
Out: 40

----------
- Tested on: Johnsongrass (Sorghum halepense, SORHA)
- Protocol summary: Pre-emerge greenhouse herbicide test, phytotoxicity rating
- Format: in vivo
- Settings: Sorghum halepense, pre-emergence, 336 h, Rate 500 g al/ha, 14 days after application, rating scale 0-100
- Procedure: A standard greenhouse herbicide activity screening system was used to evaluate the herbicidal efficacy and crop safety of these test compounds. […] At 14 days after application of the test materials, phytotoxicity ratings were recorded. […]
Reported pest or weed control at 500 g/ha values are given for each entry in this list.

Nn1c(C(F)(F)F)cc(=O)n(-c2cc(Oc3ccc([N+](=O)[O-])cn3)c(Cl)cc2F)c1=O 90%
Nn1c(C(F)(F)F)cc(=O)n(-c2cc(Oc3ccc(Br)cn3)c(Cl)cc2F)c1=O 90%

Attention now shifts to the item below.
In: Requested field: pest or weed control at 500 g/ha. Item: Nn1c(C(F)(F)F)cc(=O)n(-c2cc(Oc3ccccc3)c(Cl)cc2F)c1=O
Out: 100%

----------
- System: green foxtail (Setaria viridis, SETVI)
- Protocol summary: Post-emerge greenhouse herbicide test, phytotoxicity rating
- Format: in vivo
- Settings: Setaria viridis, post-emergence, 336 h, rate 500 g ai/ha, 14 days after application, scale 0-100
- Method: A standard greenhouse herbicide activity screening system was used to evaluate the herbicidal efficacy and crop safety of these test compounds. […] At 14 days after application of the test materials, phytotoxicity ratings were recorded. […]
Measure name: pest or weed control at 500 g/ha (%)
Report the figure in % without appending any unit label.

Worked examples follow.
Nn1c(C(F)(F)F)cc(=O)n(-c2cc(Oc3ccc(Br)cn3)c(Cl)cc2F)c1=O 60
Nn1c(C(F)(F)F)cc(=O)n(-c2cc(Oc3nccc(Cl)n3)c(Cl)cc2F)c1=O 10
Nn1c(C(F)(F)F)cc(=O)n(-c2cc(Oc3ccc([N+](=O)[O-])cn3)c(Cl)cc2F)c1=O 40
Nn1c(C(F)(F)F)cc(=O)n(-c2cc(Oc3ncccc3[N+](=O)[O-])c(Cl)cc2F)c1=O 90
Nn1c(C(F)(F)F)cc(=O)n(-c2cc(Oc3ccccc3[N+](=O)[O-])c(Cl)cc2F)c1=O 100

Attention now shifts to the item below.
In: Requested field: pest or weed control at 500 g/ha. Item: O=c1n(-c2cc(Oc3ncccc3C(F)(F)F)c(Cl)cc2F)c(=S)n2n1CCCC2
Out: 70

----------
Reported crop damage rating CORN values are given for each entry in this list.
- System: field corn (Zea mays L., var. Dekalb 535, CORN)
- Protocol summary: Post-emerge greenhouse test, crop damage rating
- Type: in vivo
- Settings: rate 63 g ai/ha, 14 days after application, scale 0-100

Worked examples follow.
Compound	Target of assay	crop damage rating CORN
CCOC(=O)C(C)Oc1ccc(Oc2cc(-n3c(=O)n4n(c3=S)CCCC4)c(F)cc2Cl)c([N+](=O)[O-])c1 (stereo not shown)	field corn (Zea mays L., var. Dekalb 535, CORN)	15
O=c1n(-c2cc(Oc3ncc([N+](=O)[O-])s3)c(Cl)cc2F)c(=S)n2n1CCCC2	field corn (Zea mays L., var. Dekalb 535, CORN)	10

In: Requested field: crop damage rating CORN. Item: Nn1c(C(F)(F)F)cc(=O)n(-c2cc(Oc3cccc(C(F)(F)F)c3)c(Cl)cc2F)c1=O
Out: 15

In: Requested field: crop damage rating CORN. Item: Cc1nsc(Oc2cc(-n3c(=O)n4n(c3=S)CCCC4)c(F)cc2Cl)c1[N+](=O)[O-]
Out: 10

In: Requested field: crop damage rating CORN. Item: CCOC(=O)C(C)Oc1cc([N+](=O)[O-])c(Oc2cc(-n3c(=O)n4n(c3=S)CCCC4)c(F)cc2Cl)cc1Cl (stereo not shown)
Out: 0

In: Requested field: crop damage rating CORN. Item: O=c1n(-c2cc(Oc3nc(F)c(F)cc3F)c(Cl)cc2F)c(=S)n2n1CCCC2
Out: 10

In: Requested field: crop damage rating CORN. Item: Nc1ccc(Oc2cc(-n3c(=O)n4n(c3=S)CCCC4)c(F)cc2Cl)nc1
Out: 10
